Kindly supply the reported t1/2 values for the records listed here.
# Tested on: Liver
# testProtocol: Half life in mouse liver microsomes
# Type: ADME, Microsome
Entry rule: numbers only, all in min.

Query: Given the entry "CC(C)(C)C[C@@H]1N[C@@H](C(=O)N[C@H]2CC[C@@H](O)C2)[C@H](c2cccc(Cl)c2F)[C@]12C(=O)Nc1cc(Cl)ccc12" , report its measured t1/2.
Result: 1.5

Query: Now consider "CC(C)(C)C[C@@H]1N[C@@H](C(=O)N[C@H]2C[C@@H](O)C2)[C@H](c2cccc(Cl)c2F)[C@]12C(=O)Nc1cc(Cl)ccc12" .
Result: 20.6

###

Assign t1/2 to each entry below.
# Test system: Liver microsomes
# testProtocol: Half life in rat liver microsomes
# Type: ADME, Microsome
Express it in min; write the number only.

Query: What value of measured t1/2 is listed for "CC(C)(C)C[C@@H]1N[C@@H](C(=O)N[C@H]2CC[C@@H](O)C2)[C@H](c2cccc(Cl)c2F)[C@]12C(=O)Nc1cc(Cl)ccc12" ?
Result: 3.8

Query: Repeat with "CC(C)(C)C[C@@H]1N[C@@H](C(=O)NCC[C@H](O)CO)[C@H](c2cccc(Cl)c2F)[C@]12C(=O)Nc1cc(Cl)ccc12"
Result: 16.3

Query: Thanks! And "CC(C)(C)C[C@@H]1N[C@@H](C(=O)N[C@H]2CC[C@H](O)C2)[C@H](c2cccc(Cl)c2F)[C@]12C(=O)Nc1cc(Cl)ccc12" ?
Result: 21.1
